- assay-protocol: NCI Yeast Anticancer Drug Screen. Data for the mlh1 rad18 strain (AID 175)
- study-conditions: S. cerevisiae mlh1 rad18 strain growth inhibition; at 5.0 µM (retest, dose inferred, filed as 0.5); active compounds read high
- Method: Growth inhibition of yeast strains with defined genetic alterations is measured as a screen for potential anti-cancer activity. Selected strains with alterations in DNA damage repair or cell cycle control were exposed to compounds and growth inhibition was measured relative to vehicle treated controls. The strain used in this assay is mlh1 rad18
This is part of a sample that, as a whole, favours compounds with a hit. Of some 79,000 tested, about 15% had one in any assay.
measured-endpoint: growth inhibition (%)
Use % as the unit, but write only the number.

Consider the compound CCCCCCCCCCCC(=O)c1c(O)c2ccccc2oc1=O and give its measured growth inhibition.
-4

Now the same for Cc1nc2ccc3c(ccc4nc(C)c(N=Nc5ccc(C(=N)N)cc5)c(O)c43)c2c(O)c1N=Nc1ccc(C(=N)N)cc1
2

Now the same for CCOc1ccc2c(c1)CCC1C2CCC2(C)CC(O)CC12 (centres undefined)
14

Now the same for COc1cc(/C=C2/C(=O)N(C(=O)c3ccccc3O)N=C2C)cc(OC)c1OC
20

###

- assay-protocol: NCI Yeast Anticancer Drug Screen. Data for the sgs1 mgt1 strain (AID 161);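 note: 0% = growth of cultures given vehicle only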
- study-conditions: S. cerevisiae sgs1 mgt1 strain, at 50.0 µM
About 79,000 compounds went through this panel and 15% of them were active in at least one assay; those are over-represented in the sample as a whole. Activity calls are given as the source filed them. No stated cut-off is given here; in the data, active means growth inhibition above about 70%; inactive means the rest.
Classes to choose from: active, inactive

How did this test come out for CCCCOC(=O)C(=O)/C(=C/N1C(=O)/C(=C/C(C)=C/c2ccccc2)SC1=S)C(=O)C=C(C)C ?
inactive

Now the same for CCCC(C(=O)OCCN1CCCC1(C)C)C1CCCC1 (centres undefined)
inactive

Now the same for Cc1ccc(NN)cc1
active

Now the same for CC/C(Cl)=N\OC(=O)Nc1ccc(F)c(Cl)c1
active

###

- assay-protocol: NCI Yeast Anticancer Drug Screen. Data for the cln2 rad14 strain (AID 165);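 note: 0% = growth equal to vehicle treated cultures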
- study-conditions: S. cerevisiae cln2 rad14 strain, at 50.0 µM, active compounds read high
About 79,000 compounds went through this panel and 15% of them were active in at least one assay; those are over-represented in the sample as a whole.
Provide the reported growth inhibition of each item.
Use % as the unit, but write only the number.

Consider the molecule CC(=O)Nc1ccc(-c2nnc(SCC(=O)Nc3ccc(Cl)cc3Cl)o2)cc1 and give its measured growth inhibition.
86.4

Now the same for CC1([N+](=O)[O-])C(=O)C2(N3CCCCC3)CCCC2C1c1ccccc1 (centres undefined)
36.2

Now the same for O=C1C2CCCC3CCCC(C(=O)N1O)C32 (centres undefined)
74.7

Now the same for O=C(Nc1ccc(Cl)cc1)Nc1nnc(/C=C/c2ccc(Cl)c(Cl)c2)o1
-14.2

Now the same for Oc1ccc2ccccc2c1I
92.6

Now the same for CCCCC(=O)N/N=C(\C)[C@]1(O)Cc2c(O)c3c(c(O)c2[C@@H](OC2CC(N)C(O)C(C)O2)C1)C(=O)c1c(OC)cccc1C3=O (some centres undefined)
97.1

Now the same for C1CCC2CC3(CCNCC3)CCC2C1 (centres undefined)
83.7

Now the same for CCCCN(CCCC)CN1C(=O)/C(=C/c2ccc(NC(C)=O)cc2)NC1=S
79.8

Now the same for CC1(C)CC(=O)C2=C(C1)OC1=C(C(=O)CC(C)(C)C1)C2CC(c1ccccc1)c1ccc(O)c(O)c1O (centres undefined)
28.2

Now the same for O=C1C=C(c2ccccc2)OC1(Nc1ccccc1)c1ccccc1 (centres undefined)
45.2

Now the same for CC(=O)OCC1OC(n2ncc3c(Sc4c([N+](=O)[O-])ncn4C)ncnc32)C(OC(C)=O)C1OC(C)=O (centres undefined)
99.4

Now the same for CCC1=C(c2ccccc2)C(O)(c2ccccc2)C(CC)C1=O (centres undefined)
92.2

Now the same for C[N+]1(c2ccccc2)C=C(c2ccccc2)SC1=S (centres undefined)
23.4

Now the same for CC(C)SC(=S)Nc1cc(C(F)(F)F)ccc1Cl
99.4

Now the same for Cc1cc(N2C(=O)CCSC2=S)ccc1Cl
54.5

Now the same for CCCCCCCCCCCCCCCCOc1ccc(S(=O)(=O)N/N=c2/sc3ccc(S(=O)(=O)O)cc3n2C)cc1C(=O)O
40.2

Now the same for BrC1CCCCCC1
27.4

Now the same for CC(=O)OC1=CC(n2cc(F)c(=O)[nH]c2=O)OC(C)C1=O (centres undefined)
37.5

Now the same for COC1CC(OC(=O)c2ccccc2)C2OC(c3ccccc3)OCC2O1 (centres undefined)
-3.35

Now the same for O=C(O)/C=C/C(=O)Nc1cccc2c1C(=O)c1ccccc1-2
89.7

Now the same for O=C1C(Cl)=C(N2CCN(c3ccccn3)CC2)C(=O)c2ncccc21
89.4

Now the same for O=C(NNc1ccccc1)C(O)C(O)C(O)C(O)C(O)C(O)C(O)CO (centres undefined)
95.9

Now the same for O=C1CCSC(=S)N1c1ccc(Br)c(Cl)c1
12.7

Now the same for CCCCCCCCCCN(CCCCCCCCCC)C(=O)COc1c2cc(C(C)(C)C)cc1Cc1cc(C(C)(C)C)cc(c1OCC(=O)N(CCCCCCCCCC)CCCCCCCCCC)Cc1cc(C(C)(C)C)cc(c1OCC(=O)N(CCCCCCCCCC)CCCCCCCCCC)Cc1cc(C(C)(C)C)cc(c1OCC(=O)N(CCCCCCCCCC)CCCCCCCCCC)C2
87.3

Now the same for CSCCOC(=O)c1cc(NC(=S)c2ccoc2C)ccc1Cl
67

Now the same for COC(=O)C1(OC(=O)CCC(=O)O)C(=O)NC2=C1C(=O)c1ccccc1C2=O (centres undefined)
38.5

Now the same for CC(=O)Oc1c(Br)ccc2cc(C(Br)Br)c(C(=O)c3ccccc3)nc12
82.9

Now the same for COc1cnc2cc3c4c(cccc4c2c1)NC3=O
75

Now the same for CC(=O)N/N=C1/CC[C@@]2(C)C(=CC[C@H]3C4CCC(C(C)CCCC(C)C)[C@@]4(C)CCC32)C1(C)C (some centres undefined)
55.1

Now the same for CC1=Nc2ccccc2/C1=C\c1c(C)[nH]c2ccccc12
74.3

Now the same for c1cnc2ccc3c4cccnc4ccc3c2c1
59.5

Now the same for O=C(O)C(CCc1cccc2ccccc12)c1ccccc1 (centres undefined)
99.3

Now the same for O=C(CCCN1CCC(C(O)c2ccc(F)cc2)CC1)c1ccc(F)cc1 (centres undefined)
68

Now the same for CCc1cccc(C(C)(C)C)c1NC(=S)N/C=C(\C#N)C(=O)c1ccc2ccccc2c1
29.3
